# systemTested: Sentrin-specific protease 8 (Homo sapiens);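 also: luminescence read-out of SENP8 inhibition, dose-response confirmation following an ultra-high-throughput screen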
# Sequence (Q96LD8 whole entry): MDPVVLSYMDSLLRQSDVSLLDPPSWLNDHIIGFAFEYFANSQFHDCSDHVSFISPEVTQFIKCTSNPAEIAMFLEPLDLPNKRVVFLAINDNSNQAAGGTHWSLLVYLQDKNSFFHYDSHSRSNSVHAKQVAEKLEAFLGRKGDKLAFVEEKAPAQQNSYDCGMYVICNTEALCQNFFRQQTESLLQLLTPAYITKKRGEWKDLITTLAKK
# Type: functional
The source made the active and inactive calls.
Pick one: yes = active, no = inactive

# input # lookup: test call for Cc1ccccc1-c1nc2sc3c(c2c(=O)o1)CCC3
# output no

# input # lookup: test call for O=C(NN=c1c(=O)c2ccccc2c1=O)c1ccccc1
# output no

# input # lookup: test call for Fc1cccc(F)c1-c1nc(-c2ccc(Cl)cc2)no1
# output yes

# input # lookup: test call for Cc1ccccc1N1C(=O)Cc2ccccc2C1=O
# output yes

# input # lookup: test call for CCn1c(SCc2ccccc2Cl)nc2ccccc21
# output yes

# input # lookup: test call for CSc1nc2ccc(NC(=O)c3cc4ccccc4o3)cc2s1
# output yes

* * *

Consider the following molecules; for each one, report its AC50.
# systemTested: Microphthalmia-associated transcription factor (Homo sapiens)
# Sequence (O75030 whole entry): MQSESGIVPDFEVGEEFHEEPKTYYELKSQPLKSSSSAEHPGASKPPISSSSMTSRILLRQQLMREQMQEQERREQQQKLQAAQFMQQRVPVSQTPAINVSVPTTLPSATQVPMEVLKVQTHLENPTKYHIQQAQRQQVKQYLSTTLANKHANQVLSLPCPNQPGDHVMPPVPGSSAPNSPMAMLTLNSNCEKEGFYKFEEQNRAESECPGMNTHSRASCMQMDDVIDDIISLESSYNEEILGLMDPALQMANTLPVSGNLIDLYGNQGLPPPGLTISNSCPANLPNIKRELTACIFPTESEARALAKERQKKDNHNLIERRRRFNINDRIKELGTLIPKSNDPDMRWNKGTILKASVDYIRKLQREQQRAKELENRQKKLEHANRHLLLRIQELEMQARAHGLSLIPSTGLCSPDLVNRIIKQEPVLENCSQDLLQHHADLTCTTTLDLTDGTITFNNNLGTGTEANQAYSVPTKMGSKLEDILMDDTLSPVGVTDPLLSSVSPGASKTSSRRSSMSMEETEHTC
# protocolNotes: reducers of TRPM1 reporter luminescence, concentration series – cell-based, SK-MEL-5, cherry-picked, set 3, MITF inhibitor project, dose response (AID 493073);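 also: SK-MEL-5 melanoma cells with luciferase driven by the MITF target TRPM1 promoter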
# Assay type: functional
The source made the active and inactive calls.

# input Please state recorded AC50 (tested on Microphthalmia-associated transcription factor (Homo sapiens)) of O=C(CCl)Nc1cccc(Oc2ccccc2)c1
# output 8.07 µM (active)

# input Please state recorded AC50 (tested on Microphthalmia-associated transcription factor (Homo sapiens)) of O=C(O)c1ccccc1C(=O)Nc1ccc(Oc2cccc3ccccc23)cc1
# output 18.8 µM (active)

# input Please state recorded AC50 (tested on Microphthalmia-associated transcription factor (Homo sapiens)) of O=C(N/N=C/c1ccccn1)c1cc([N+](=O)[O-])cc([N+](=O)[O-])c1
# output 6.54 µM (active)

# input Please state recorded AC50 (tested on Microphthalmia-associated transcription factor (Homo sapiens)) of CCCC(=O)N1CCN(c2ccc(NC(=O)c3ccc([N+](=O)[O-])o3)cc2Cl)CC1
# output 7.65 µM (active)

# input Please state recorded AC50 (tested on Microphthalmia-associated transcription factor (Homo sapiens)) of Cc1ccc(NC(=O)CN(C)C(=O)Cn2ncc(Cl)c(Cl)c2=O)cc1
# output 9.16 µM (active)

* * *

# systemTested: Estrogen receptor beta (Homo sapiens, UniProt Q92731)
# Sequence (Q92731 whole entry): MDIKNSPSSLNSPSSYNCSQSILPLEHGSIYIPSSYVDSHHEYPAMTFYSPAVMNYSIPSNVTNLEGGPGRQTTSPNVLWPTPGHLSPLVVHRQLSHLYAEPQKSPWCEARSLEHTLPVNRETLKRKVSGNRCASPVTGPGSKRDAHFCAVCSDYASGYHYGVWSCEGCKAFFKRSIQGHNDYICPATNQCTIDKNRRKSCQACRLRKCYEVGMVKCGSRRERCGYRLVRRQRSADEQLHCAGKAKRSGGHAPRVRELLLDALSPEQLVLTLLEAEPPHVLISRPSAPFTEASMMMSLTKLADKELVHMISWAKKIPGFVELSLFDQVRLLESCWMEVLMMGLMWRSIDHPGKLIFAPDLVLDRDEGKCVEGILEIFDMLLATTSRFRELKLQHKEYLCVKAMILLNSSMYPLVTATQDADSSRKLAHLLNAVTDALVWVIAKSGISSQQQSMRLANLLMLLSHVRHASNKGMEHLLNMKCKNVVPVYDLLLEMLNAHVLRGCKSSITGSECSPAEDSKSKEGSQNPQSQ
# protocolNotes: blockers of SRC-3 recruitment to ERβ – biochemical, ELISA, streptavidin-HRP readout, orthogonal assay, confirmation (AID 1060)
Consider the following compounds; for each one, report its IC50.

# input Item under review: Cc1ccc(C)n1-c1sccc1C(=O)O . Reported IC50?
# output 6.1 µM (not active)

# input Item under review: Cc1ccc(OCc2ccoc2C(=O)O)cc1C . Reported IC50?
# output < 0.023 µM (not active)

# input Item under review: CCCc1cc(O)nc(SCC(=O)Nc2ccc(C(=O)OC)cc2)n1 . Reported IC50?
# output > 50 µM (not active)

# input Item under review: Sc1nnc(-c2cc(-c3ccco3)[nH]n2)n1-c1ccccc1Cl . Reported IC50?
# output > 109 µM (not active)

* * *

measuredMetric: AC50

# input Please state recorded AC50 (tested on Cytochrome P450 2C9 (Homo sapiens)) of N#C/C(=C(\O)C(=O)O)c1ccc(-c2cccc3ccccc23)cc1
# Sequence (P11712 whole entry): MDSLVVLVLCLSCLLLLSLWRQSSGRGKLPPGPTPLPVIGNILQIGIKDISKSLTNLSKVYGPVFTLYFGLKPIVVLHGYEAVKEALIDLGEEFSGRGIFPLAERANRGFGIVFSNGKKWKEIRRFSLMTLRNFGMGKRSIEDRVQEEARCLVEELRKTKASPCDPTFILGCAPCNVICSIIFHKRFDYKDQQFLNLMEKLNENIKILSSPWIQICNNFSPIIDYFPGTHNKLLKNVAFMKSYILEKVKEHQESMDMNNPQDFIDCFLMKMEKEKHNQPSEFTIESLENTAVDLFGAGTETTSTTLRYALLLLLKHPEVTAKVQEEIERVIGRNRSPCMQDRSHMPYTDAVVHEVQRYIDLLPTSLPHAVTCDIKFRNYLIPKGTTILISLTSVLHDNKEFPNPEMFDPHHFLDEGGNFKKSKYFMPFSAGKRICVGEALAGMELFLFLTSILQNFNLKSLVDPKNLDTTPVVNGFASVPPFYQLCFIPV
# output 3.16 µM (inconclusive)

# input Please state recorded AC50 (tested on Cytochrome P450 2C9 (Homo sapiens)) of Cc1cccc(CNc2ncncc2-c2cccc(NS(C)(=O)=O)c2)c1
# output 1 µM (inconclusive)

# input Please state recorded AC50 (tested on Cytochrome P450 2C9 (Homo sapiens)) of CCOC(=O)c1c(C)[nH]c(C(=O)OCC(=O)NC2CCS(=O)(=O)C2)c1C (stereo not drawn)
# output 31.6 µM (inconclusive)

# input Please state recorded AC50 (tested on Cytochrome P450 2C9 (Homo sapiens)) of NC(=O)NCc1ccc(Cl)cc1
# output 0.0501 µM (inconclusive)

# input Please state recorded AC50 (tested on Cytochrome P450 2C9 (Homo sapiens)) of Cn1c(=O)c(-c2cccs2)nc2cnc(Oc3ccccc3)nc21
# output 20 µM (inconclusive)

# input Please state recorded AC50 (tested on Cytochrome P450 2C9 (Homo sapiens)) of CCOC(=O)c1sc(N(Cc2ccccc2)C(=O)CN2C(=O)CN(C)C2=O)nc1C
# output 11.2 µM (inconclusive)

# input Please state recorded AC50 (tested on Cytochrome P450 2C9 (Homo sapiens)) of COc1ccc(C2=NOC(C(=O)Nc3ccc(C(C)=O)cc3)C2)cc1OC (stereo not drawn)
# output 11.2 µM (inconclusive)

# input Please state recorded AC50 (tested on Cytochrome P450 2C9 (Homo sapiens)) of CCOc1ccc(NC(=S)NC(=O)/C=C/c2ccc(OC)c(OC)c2)c([N+](=O)[O-])c1
# output 14.1 µM (inconclusive)

# input Please state recorded AC50 (tested on Cytochrome P450 2C9 (Homo sapiens)) of Cc1cc(Oc2ccccc2)nc(NCc2ccccc2)n1
# output 10 µM (inconclusive)

# input Please state recorded AC50 (tested on Cytochrome P450 2C9 (Homo sapiens)) of O=C(c1cnccn1)N1CCC2(CC1)CN(c1ccncc1)C2
# output 25.1 µM (inconclusive)

# input Please state recorded AC50 (tested on Cytochrome P450 2C9 (Homo sapiens)) of Cc1c(C(=O)O)oc2ccc(S(=O)(=O)NCc3ccc4c(c3)OCO4)cc12
# output 3.55 µM (inconclusive)

# input Please state recorded AC50 (tested on Cytochrome P450 2C9 (Homo sapiens)) of CCOC(=O)CC(NC(=O)c1ccco1)c1ccc(OC)cc1 (stereo not drawn)
# output 15.8 µM (inconclusive)

# input Please state recorded AC50 (tested on Cytochrome P450 2C9 (Homo sapiens)) of CCOCCCN1C(=O)CN(C2CCCCC2)C(=O)C1c1ccc(OCC)c(OC)c1 (stereo not drawn)
# output 11.2 µM (inconclusive)

# input Please state recorded AC50 (tested on Cytochrome P450 2C9 (Homo sapiens)) of CCN(CC)C(=O)c1cc2cc([N+](=O)[O-])ccc2s1
# output 17.8 µM (inconclusive)

# input Please state recorded AC50 (tested on Cytochrome P450 2C9 (Homo sapiens)) of CNC(=S)N1CCN(c2cccc(OC)c2)CC1
# output 22.4 µM (inconclusive)

# input Please state recorded AC50 (tested on Cytochrome P450 2C9 (Homo sapiens)) of Nc1ccc(-c2nc3ccc(N)c(Cl)c3[nH]2)cc1
# output 0.112 µM (inconclusive)

# input Please state recorded AC50 (tested on Cytochrome P450 2C9 (Homo sapiens)) of O=c1c(-c2cccs2)nc2cncnc2n1Cc1ccc(F)cc1
# output 1 µM (inconclusive)

# input Please state recorded AC50 (tested on Cytochrome P450 2C9 (Homo sapiens)) of CCCCc1ccc(-c2nc(NC(=O)C3C4CCC(O4)C3C(=O)O)sc2C)cc1 (stereo not drawn)
# output 3.55 µM (inconclusive)

# input Please state recorded AC50 (tested on Cytochrome P450 2C9 (Homo sapiens)) of O=C(Nc1ccc(F)cc1F)c1cccn1-c1ncc(C(F)(F)F)cc1Cl
# output 39.8 µM (inconclusive)

# input Please state recorded AC50 (tested on Cytochrome P450 2C9 (Homo sapiens)) of Cc1ccc(-n2c(=O)c3sccc3n(CC(=O)NCc3ccco3)c2=O)cc1F
# output 14.1 µM (inconclusive)

# input Please state recorded AC50 (tested on Cytochrome P450 2C9 (Homo sapiens)) of CC(=O)c1cn(CCCCCCCCCCn2cc(C(C)=O)c(=O)[nH]c2=O)c(=O)[nH]c1=O
# output 3.16 µM (inconclusive)

# input Please state recorded AC50 (tested on Cytochrome P450 2C9 (Homo sapiens)) of COc1ccc2[nH]c3c(c2c1)CN(C)CC3
# output 39.8 µM (inconclusive)

# input Please state recorded AC50 (tested on Cytochrome P450 2C9 (Homo sapiens)) of O=C(CSCc1ccc(Cl)cc1)Nc1nccs1
# output 14.1 µM (inconclusive)
